Target: mini-HA #4900 (Designed influenza HA stem #4900, …, stabilised)
Assay: BLI
Details: both partners purified
READOUT_NAME: pKd
Answers are plain numbers, as −log10 of the molar value.

The cases that follow already have their pKd on record.
CR9114 gHC Fab VL W91F (Fab, V domains shown, Kabat numbering; source: Expi293F, co-transfected, purified (CaptureSelect CH1-XL)) VH: QVQLVQSGAEVKKPGSSVKVSCKASGGTFSSYAISWVRQAPGQGLEWMGGIIPIFGTANYAQKFQGRVTITADKSTSTAYMELSSLRSEDTAVYYCARHGNYYYYYGMDVWGQGTTVTVSS VL: SYVLTQPPAVSGTPGQRVTISCSGSDSNIGRRSVNWYQQFPGTAPKLLIYSNDQRPSVVPDRFSGSKSGTSASLAISGLQSEDEAEYYCAAFDDSLKGAVFGGGTQLTVL    5.01
CR9114 gHC Fab VL A96R (Fab, V domains shown, Kabat numbering; source: Expi293F, co-transfected, purified (CaptureSelect CH1-XL)) VH: QVQLVQSGAEVKKPGSSVKVSCKASGGTFSSYAISWVRQAPGQGLEWMGGIIPIFGTANYAQKFQGRVTITADKSTSTAYMELSSLRSEDTAVYYCARHGNYYYYYGMDVWGQGTTVTVSS VL: SYVLTQPPAVSGTPGQRVTISCSGSDSNIGRRSVNWYQQFPGTAPKLLIYSNDQRPSVVPDRFSGSKSGTSASLAISGLQSEDEAEYYCAAWDDSLKGRVFGGGTQLTVL    4.89
CR9114 with germline heavy chain, Fab (Fab, V domains shown, also called CR9114 gHC; WT; source: Expi293F, co-transfected, purified (CaptureSelect CH1-XL)) VH: QVQLVQSGAEVKKPGSSVKVSCKASGGTFSSYAISWVRQAPGQGLEWMGGIIPIFGTANYAQKFQGRVTITADKSTSTAYMELSSLRSEDTAVYYCARHGNYYYYYGMDVWGQGTTVTVSS VL: SYVLTQPPAVSGTPGQRVTISCSGSDSNIGRRSVNWYQQFPGTAPKLLIYSNDQRPSVVPDRFSGSKSGTSASLAISGLQSEDEAEYYCAAWDDSLKGAVFGGGTQLTVL    5.21
CR9114 gHC Fab VL W91Y (Fab, V domains shown, Kabat numbering; source: Expi293F, co-transfected, purified (CaptureSelect CH1-XL)) VH: QVQLVQSGAEVKKPGSSVKVSCKASGGTFSSYAISWVRQAPGQGLEWMGGIIPIFGTANYAQKFQGRVTITADKSTSTAYMELSSLRSEDTAVYYCARHGNYYYYYGMDVWGQGTTVTVSS VL: SYVLTQPPAVSGTPGQRVTISCSGSDSNIGRRSVNWYQQFPGTAPKLLIYSNDQRPSVVPDRFSGSKSGTSASLAISGLQSEDEAEYYCAAYDDSLKGAVFGGGTQLTVL    4.34
CR9114 gHC Fab VL A96S (Fab, V domains shown, Kabat numbering; source: Expi293F, co-transfected, purified (CaptureSelect CH1-XL)) VH: QVQLVQSGAEVKKPGSSVKVSCKASGGTFSSYAISWVRQAPGQGLEWMGGIIPIFGTANYAQKFQGRVTITADKSTSTAYMELSSLRSEDTAVYYCARHGNYYYYYGMDVWGQGTTVTVSS VL: SYVLTQPPAVSGTPGQRVTISCSGSDSNIGRRSVNWYQQFPGTAPKLLIYSNDQRPSVVPDRFSGSKSGTSASLAISGLQSEDEAEYYCAAWDDSLKGSVFGGGTQLTVL    5.72

Now consider a different binder.
Input line: # input binder: CR9114 gHC Fab VL A96V (Fab, V domains shown, Kabat numbering; source: Expi293F, co-transfected, purified (CaptureSelect CH1-XL)) VH: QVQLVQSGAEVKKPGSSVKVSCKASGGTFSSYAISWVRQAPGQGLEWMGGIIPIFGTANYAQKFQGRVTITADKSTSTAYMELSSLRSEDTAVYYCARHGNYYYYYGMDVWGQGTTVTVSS VL: SYVLTQPPAVSGTPGQRVTISCSGSDSNIGRRSVNWYQQFPGTAPKLLIYSNDQRPSVVPDRFSGSKSGTSASLAISGLQSEDEAEYYCAAWDDSLKGVVFGGGTQLTVL ; wanted: its pKd
Output line: 5.42
